Just for reference, patent US10822311B2 is where these values come from.

# Assay System: human P2X3 receptor (homomeric P2X3 channels) (Homo sapiens)
# Construct: expressed in transfected cells; host or cells: HEK293 human embryonic kidney cells (HEK-hP2X3)
# Measurement Notes: FlexStation calcium fluorescence assay, homomeric P2X3 channels in HEK293 cells
# Type: cell-based
# Condition Context: Ratio=10^(P2X3pIC50−P2X2/3pIC50)
Endpoint Name: Selectivity P2X3/P2X2/3

Q: Identify measured Selectivity P2X3/P2X2/3 corresponding to COc1cc(Oc2cnc(N)nc2NC2CCOCC2)c(C(C)C)cc1OC [Compound 40]
A: >8

Q: Give me measured Selectivity P2X3/P2X2/3, please, for this compound: COc1cc(Oc2cnc(NCC(C)C)nc2N)c(C(C)C)cc1OC [Compound 25]
A: 4.3

Q: Fill in reported Selectivity P2X3/P2X2/3 for this entry: COCCNc1nc(N)ncc1Oc1cc(OC)c(OC)cc1C(C)C [Compound 36]
A: >10

Q: Consider the compound COc1cc(Oc2cnc(N)nc2Nc2cccnn2)c(C(C)C)cc1OC [Compound 45] . State its measured Selectivity P2X3/P2X2/3.
A: 3.5

Q: Find the measured Selectivity P2X3/P2X2/3 of COc1cc(Oc2cnc(N)nc2NC2CC2)c(C(C)C)cc1OC [Compound 32] and report it.
A: 1.6

---

Each entry below carries its recorded IC50.
# Assay System: human P2X2/3 (heteromeric P2X2/3 channels) (Homo sapiens, UniProt P56373+Q9UBL9)
# Construct: expressed in transfected cells; host or cells: 1321N1 human astrocytoma cells (1321N1-hP2X2/3)
# Sequence (P56373 whole entry): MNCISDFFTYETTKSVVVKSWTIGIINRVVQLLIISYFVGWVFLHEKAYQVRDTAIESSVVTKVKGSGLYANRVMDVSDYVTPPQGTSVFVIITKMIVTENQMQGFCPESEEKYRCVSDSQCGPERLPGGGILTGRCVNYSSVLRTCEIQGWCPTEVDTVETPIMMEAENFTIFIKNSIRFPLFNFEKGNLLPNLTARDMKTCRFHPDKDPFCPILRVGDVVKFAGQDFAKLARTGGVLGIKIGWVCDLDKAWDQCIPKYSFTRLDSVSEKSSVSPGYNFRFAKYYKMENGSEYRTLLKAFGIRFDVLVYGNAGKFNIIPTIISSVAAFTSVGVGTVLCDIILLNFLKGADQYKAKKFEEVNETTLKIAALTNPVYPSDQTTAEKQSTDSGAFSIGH
# Sequence (Q9UBL9 whole entry): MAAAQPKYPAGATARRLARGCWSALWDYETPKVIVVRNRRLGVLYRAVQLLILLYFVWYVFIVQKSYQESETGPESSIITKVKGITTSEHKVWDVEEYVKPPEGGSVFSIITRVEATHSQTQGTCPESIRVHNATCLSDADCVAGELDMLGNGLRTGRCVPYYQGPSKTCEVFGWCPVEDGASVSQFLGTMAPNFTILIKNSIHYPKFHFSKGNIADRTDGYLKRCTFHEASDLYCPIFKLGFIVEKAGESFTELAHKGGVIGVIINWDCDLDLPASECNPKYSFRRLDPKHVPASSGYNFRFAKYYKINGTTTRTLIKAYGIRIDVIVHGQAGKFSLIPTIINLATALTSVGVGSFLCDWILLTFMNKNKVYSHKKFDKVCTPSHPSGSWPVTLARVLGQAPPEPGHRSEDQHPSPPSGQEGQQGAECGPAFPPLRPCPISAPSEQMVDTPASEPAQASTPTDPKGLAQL
# Measurement Notes: FlexStation calcium fluorescence assay, heteromeric P2X2/3 channels in 1321N1 cells
# Type: cell-based
# Condition Context: 1321N1 cells, hP2X2/3; agonist 3 μM ATP; highest concentration tested is 10 μM; read-out: Average pIC50 P2X2/3 (converted)
Value expressed in µM; do not type the unit.

See these solved cases before continuing.
| Compound | IC50 / µM |
| --- | --- |
| COc1cc(Oc2cnc(NC3CC3)nc2N)c(C(C)C)cc1OC [Compound 26] | 3.16 |
| COc1nc(C(C)C)c(Oc2cnc(N)nc2N)cc1I [Compound 15] | 0.398 |
| COc1cc(Oc2cnc(NC3CCOCC3)nc2N)c(C(C)C)cc1OC [Compound 28] | 1.26 |

Q: Lab note: record IC50 of COc1cc(Nc2cnc(N)nc2N)c(C(C)C)cc1OC [Compound 47] tested on human P2X2/3 (heteromeric P2X2/3 channels) (Homo sapiens, UniProt P56373+Q9UBL9).
A: 1.38

Q: Report value: IC50, system: human P2X2/3 (heteromeric P2X2/3 channels) (Homo sapiens, UniProt P56373+Q9UBL9), compound: COc1cc(Oc2cnc(NCC(O)CO)nc2N)c(C(C)C)cc1OC (centres unmarked) [Compound 31]
A: 3.98

---

Some compounds, each annotated with its measured IC50.
# Assay System: human P2X3 receptor (homomeric P2X3 channels) (Homo sapiens, UniProt P56373)
# Construct: expressed in transfected cells; host or cells: HEK293 human embryonic kidney cells (HEK-hP2X3)
# Sequence (P56373 whole entry): as the sequence (P56373 whole entry) above
# Measurement Notes: FlexStation calcium fluorescence assay, homomeric P2X3 channels in HEK293 cells
# Assay type: cell-based
# Condition Context: HEK293 cells, hP2X3; agonist 1 μM α,β-meATP; read-out: Average pIC50 P2X3 (converted)
Returns: string containing the numeric result and its unit.

Completed entries (count: 3):
| Chemical String | Assay System | Experimental Result |
| --- | --- | --- |
| COc1cc(Oc2cnc(NC3CCOCC3)nc2N)c(C(C)C)cc1OC | human P2X3 receptor (homomeric P2X3 channels) (Homo sapiens, UniProt P56373) | 398 nM |
| COc1nc(C(C)C)c(Oc2cnc(N)nc2N)cc1S(C)(=O)=O | human P2X3 receptor (homomeric P2X3 channels) (Homo sapiens, UniProt P56373) | 63.1 nM |
| COc1cc(Oc2cnc(N)nc2NC2CC2)c(C(C)C)cc1OC | human P2X3 receptor (homomeric P2X3 channels) (Homo sapiens, UniProt P56373) | 794 nM |

Q: Identify measured IC50 corresponding to COc1nc(C(C)C)c(Oc2cnc(N)nc2N)cc1C#N
A: 1000 nM

Q: State its IC50 for this compound: COc1nc(C(C)C)c(Oc2cnc(N)nc2N)cc1S(N)(=O)=O
A: 20 nM
